- Target or system: T1, APC8191-AA
- T1 chain: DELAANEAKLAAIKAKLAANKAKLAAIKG
- Test method notes: two-hybrid library CCmax;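 also: natural log of median RNA to DNA barcode read ratio; higher means stronger binding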
- Experimental setup: mean of both orientations
Reported endpoint: interaction score

Take a look at these entries with their results.
• DKNAALKAKAAALKAELAANEAKAAALKG [APC5383-AA] = -2.31
• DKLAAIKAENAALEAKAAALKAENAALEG [APC1434-AA] = -1.74
• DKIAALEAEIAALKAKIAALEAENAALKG [4H2148-AA] = -1.4
• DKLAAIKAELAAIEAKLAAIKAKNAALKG [APC1015-AA] = -1.8
• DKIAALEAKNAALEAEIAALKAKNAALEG [4H2447-AA] = -1.38

P: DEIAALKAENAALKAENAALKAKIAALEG [4H733-AA]
Q: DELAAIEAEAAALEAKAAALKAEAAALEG [APC232-AA]
Exam item: Which has the higher interaction score, P or Q ? Returns: label corresponding to the selected item.
Marked response: P
(P: -1.19, Q: -2.34)

Taken from paper PMC10397247.
